Exercise: for every item that follows, state its recorded protein stability index.
B1: PBXIP1 (parent)
chain: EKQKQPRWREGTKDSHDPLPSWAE

# Variants of: B1
# ASSAY_DETAILS: protein stability index of a GFP-peptide fusion (GPS, HEK-293T) (PSI 1-6); higher = more stable;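 note: lentivirally expressed fusions sorted by FACS into six bins by GFP to DsRed ratio, PSI derived from sequencing read proportions per bin multiplied by bin number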
# TEST_PARAMETERS: c terminus: a fixed tail appended
Write the number on its own, no unit after it.

Form field: reported protein stability index of EKQKQPRWKEGTKDSHDPLPSWAE
2.32

Form field: reported protein stability index of EKQKQPRWREGTKDMHDPLPSWAE
3.08

Form field: reported protein stability index of EKQKQPRVREGTKDSHDPLPSWAE
2.05

Form field: reported protein stability index of EKQKQPRWREGTKDLHDPLPSWAE
1.27

Form field: reported protein stability index of EKTKQPRWREGTKDSHDPLPSWAE
1.89

Form field: reported protein stability index of EKQKQPRWREGTKDWHDPLPSWAE
1.54

Form field: reported protein stability index of EKQKQPRWREGTKDSHDPLRSWAE
2

Form field: reported protein stability index of EKQKQPRWREGTKDSHDPLQSWAE
2.45

Form field: reported protein stability index of EKQKQPLWREGTKDSHDPLPSWAE
1.32

Form field: reported protein stability index of KKQKQPRWREGTKDSHDPLPSWAE
2.33

Form field: reported protein stability index of EKQKQPRRREGTKDSHDPLPSWAE
2.54

Form field: reported protein stability index of EHQKQPRWREGTKDSHDPLPSWAE
1.66

Form field: reported protein stability index of EKQKQPWWREGTKDSHDPLPSWAE
2.53

Form field: reported protein stability index of IKQKQPRWREGTKDSHDPLPSWAE
2.16

Form field: reported protein stability index of EKQKQPRWREGIKDSHDPLPSWAE
2.34

Form field: reported protein stability index of EKQKQPRWREGTKDSHAPLPSWAE
1.39
